ASSAY_TARGET: T1, recombinant human DLL4 (Cat# 1506-D4/CF, R&D Systems) (human, UniProt Q9NR61 27-529)
T1 construct: Bought protein; also called hDLL4; rHuman DLL4
METHOD_DESCRIPTION: ELISA, DLL4 coated, Fab 20 nM
List of ELISA absorbance at 450 nm values.
Answer format reminder: number followed by unit.

Report ELISA absorbance at 450 nm for Fab VH1-46_IGHD6-6*01_IGHJ1*01 S102A/S103P/S104F/H111F I51V/N52L/S54T/G56H & L6_IGKJ1*01 S28N/S30D/S31H S52L/A55S (Fab, V domains shown, Fab made in E. coli: VH on CH1 with His6 and Flag tags (Plasmid A), VL on kappa CL (Plasmid C); also called H: APFF VLTH & L: NDH LS) VH: QVQLVQSGAEVKKPGASVKVSCKASGYTFTSYYMHWVRQAPGQGLEWMGIVLPTGHSTSYAQKFQGRVTMTRDTSTSTVYMELSSLRSEDTAVYYCAREEYAPFSAEYFQFWGQGTLVTVSS VL: EIVLTQSPATLSLSPGERATLSCRASQNVDHYLAWYQQKPGQAPRLLIYDALNRSTGIPARFSGSGSGTDFTLTISSLEPEDFAVYYCQQRSNWPPWTFGQGTKVEIKR please.
0.91 A450

Another: Fab VH5-51_IGHD5-18*01>3_IGHJ4*01 G100K/G104T S28R & V3-4_IGLJ1*01 (Fab, V domains shown, Fab made in E. coli: VH on CH1 with His6 and Flag tags (Plasmid A), VL on lambda CL (Plasmid E); also called H: KT S28R & L: wt) VH: EVQLVQSGAEVKKPGESLKISCKGSGYRFTSYWIGWVRQMPGKGLEWMGIIYPGDSDTRYSPSFQGQVTISADKSISTAYLQWSSLKASDTAMYYCARRKYSYTYDYFDYWGQGTLVTVSS VL: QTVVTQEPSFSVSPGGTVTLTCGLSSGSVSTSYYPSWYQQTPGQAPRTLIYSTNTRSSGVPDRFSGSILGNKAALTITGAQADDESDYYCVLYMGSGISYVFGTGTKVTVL
0.009 A450

Another: Fab VH5-51_IGHD5-18*01>3_IGHJ4*01 G100K/G104T & V3-4_IGLJ1*01 (Fab, V domains shown, Fab made in E. coli: VH on CH1 with His6 and Flag tags (Plasmid A), VL on lambda CL (Plasmid E); also called H: KT & L: wt) VH: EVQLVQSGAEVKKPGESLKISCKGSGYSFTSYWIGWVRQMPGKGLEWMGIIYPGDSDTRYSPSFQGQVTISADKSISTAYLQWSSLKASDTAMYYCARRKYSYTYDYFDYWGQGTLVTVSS VL: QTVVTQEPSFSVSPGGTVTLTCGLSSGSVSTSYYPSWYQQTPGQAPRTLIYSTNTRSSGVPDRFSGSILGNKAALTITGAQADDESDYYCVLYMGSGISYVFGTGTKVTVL
0.018 A450
